# System Under Test: human ether-à-go-go-related gene (hERG) potassium channel (human, UniProt Q12809);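 further: peak tail current of the secondary pulse compared with the same well before compound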
# Sequence (Q12809 whole entry, looked up): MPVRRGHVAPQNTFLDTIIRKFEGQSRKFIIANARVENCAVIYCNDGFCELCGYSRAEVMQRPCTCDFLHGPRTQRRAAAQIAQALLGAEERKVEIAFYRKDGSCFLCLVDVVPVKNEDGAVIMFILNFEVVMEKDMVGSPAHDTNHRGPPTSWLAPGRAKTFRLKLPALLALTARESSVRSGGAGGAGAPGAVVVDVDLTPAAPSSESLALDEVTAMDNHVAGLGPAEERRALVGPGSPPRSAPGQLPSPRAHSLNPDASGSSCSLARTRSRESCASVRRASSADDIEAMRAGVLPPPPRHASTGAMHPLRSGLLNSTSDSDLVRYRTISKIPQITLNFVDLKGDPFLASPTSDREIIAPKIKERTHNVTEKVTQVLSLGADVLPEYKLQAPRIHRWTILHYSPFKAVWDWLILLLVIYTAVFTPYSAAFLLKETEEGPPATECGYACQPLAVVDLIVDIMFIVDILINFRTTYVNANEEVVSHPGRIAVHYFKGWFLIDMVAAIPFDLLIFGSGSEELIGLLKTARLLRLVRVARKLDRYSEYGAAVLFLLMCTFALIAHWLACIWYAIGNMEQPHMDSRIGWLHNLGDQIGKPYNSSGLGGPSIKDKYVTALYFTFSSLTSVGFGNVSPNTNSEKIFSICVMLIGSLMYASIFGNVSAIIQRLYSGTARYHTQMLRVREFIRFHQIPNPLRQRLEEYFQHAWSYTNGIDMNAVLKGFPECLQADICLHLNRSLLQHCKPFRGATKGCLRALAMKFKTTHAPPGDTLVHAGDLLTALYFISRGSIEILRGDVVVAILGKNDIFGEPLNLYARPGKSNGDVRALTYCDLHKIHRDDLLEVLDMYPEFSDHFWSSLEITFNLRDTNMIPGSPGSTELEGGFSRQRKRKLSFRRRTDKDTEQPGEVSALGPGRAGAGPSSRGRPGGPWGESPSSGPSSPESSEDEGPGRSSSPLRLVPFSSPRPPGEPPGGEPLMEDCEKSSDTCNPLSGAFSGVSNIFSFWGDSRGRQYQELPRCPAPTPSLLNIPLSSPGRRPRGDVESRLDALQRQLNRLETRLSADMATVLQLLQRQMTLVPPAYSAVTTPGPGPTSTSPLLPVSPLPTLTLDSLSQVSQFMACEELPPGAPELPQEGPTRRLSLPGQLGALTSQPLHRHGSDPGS
# Run Description: primary screen, population patch clamp on CHO cells stably expressing hERG; higher = less effect of the substance
Among all 310,000 compounds or so, about 14,000 (4.5%) showed an effect of 50% or more. Effects have a minus sign here. The full list was thinned out, with strong results kept by preference.
Rule: hERG current change (%, negative = inhibition) at 10uM of -60% or more gives True; anything lower gives False.

>  <Record Smiles>
CCOc1ccc(C(=O)N2CCC(C(=O)c3ccc4c(c3)OCCO4)CC2)cc1

>  <Class>
False

$$$$
>  <Record Smiles>
CCOC(=O)C1CCN(C(=O)C2CCN(S(=O)(=O)N3CCCC3)CC2)CC1

>  <Class>
False

$$$$
>  <Record Smiles>
CCOC(=O)N1CCN(C(=O)C2CCN(S(=O)(=O)N3CCCC3)CC2)CC1

>  <Class>
True

$$$$
>  <Record Smiles>
NC(=O)C1CCN(C(=O)c2ccc3c(c2)S(=O)(=O)c2ccccc2C3=O)CC1

>  <Class>
True

$$$$
>  <Record Smiles>
CCOC(=O)N1CCN(C(=O)C2CCN(C(=O)c3ccc([N+](=O)[O-])cc3)CC2)CC1

>  <Class>
False

$$$$

----------
# System Under Test: human ether-à-go-go-related gene (hERG) potassium channel (human, UniProt Q12809);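 further: peak tail current of the secondary pulse compared with the same well before compound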
# Run Description: primary screen, population patch clamp on CHO cells stably expressing hERG; higher = less effect of the substance
# Protocol: Briefly, Chinese hamster ovary (CHO) cells stably expressing the hERG channel were dislodged from tissue culture flasks and dispensed into PPC plates. […] During the recording, background leak currents were estimated by a 100 ms step to -80 mV from an initial holding potential of -70 mV and subtracted from the subsequent current measurement. The campaign was conducted in two phases using slight differences in recording protocol. […]
The whole screen tested about 310,000 compounds, of which about 14,000 (4.5%) showed an effect of 50% or more. The effect is printed as a negative number. The list comes from a sample in which strong results are over-represented; it also holds close analogues and randomly drawn compounds.
Listed compounds paired with reported hERG current change (%, negative = inhibition) at 10uM
Quantity: hERG current change (%, negative = inhibition) at 10uM (%)

>  <Compound>
CCNC(=O)CN(c1ccc(C)cc1)S(=O)(=O)c1ccc(SC)cc1

>  <Observed Result>
-19

$$$$
>  <Compound>
COc1ccc(C)cc1Nc1n[n+](-c2ccccc2)c(-c2ccc(OC)c(OC)c2OC)s1.[Cl-]

>  <Observed Result>
-71.8

$$$$
>  <Compound>
Cc1ccc2c(c1)C(c1ccccc1)N(C(=O)c1c(F)cccc1Cl)CC(=O)N2 (stereo not drawn)

>  <Observed Result>
-22.3

$$$$
>  <Compound>
Cc1nn(C(C)(C)C)c(C)c1/C=N/OC(=O)Nc1ccc(Cl)c(Cl)c1

>  <Observed Result>
1.85

$$$$
>  <Compound>
O=C(CN(c1cccc(Cl)c1)S(=O)(=O)c1ccc(Cl)cc1)NCc1ccccn1

>  <Observed Result>
-53.1

$$$$
>  <Compound>
N#CCSc1nnc(COc2ccc3ccccc3c2)o1

>  <Observed Result>
-5.89

$$$$
>  <Compound>
COc1ccc(NC(=S)NCc2ccc(F)cc2)c(OC)c1

>  <Observed Result>
1.54

$$$$
>  <Compound>
CN(CC(=O)NCc1ccccn1)S(=O)(=O)c1ccc(Cl)cc1

>  <Observed Result>
-12

$$$$
>  <Compound>
CCn1c2ccccc2c2cc(CNCc3ccc(OC)cc3OC)ccc21.O=C(O)C(=O)O

>  <Observed Result>
-76.2

$$$$
>  <Compound>
COc1cc(CNCc2ccc(OC)cc2OC)cc(OC)c1.O=C(O)C(=O)O

>  <Observed Result>
-29.5

$$$$
>  <Compound>
COc1ccc(CNCc2ccc(C)cc2)c(OC)c1.O=C(O)C(=O)O

>  <Observed Result>
-31.3

$$$$
>  <Compound>
CCN(c1ccccc1)S(=O)(=O)c1cc2c(cc1C)n(C)c(=O)c(=O)n2C

>  <Observed Result>
-32

$$$$
>  <Compound>
CCN(CC)C(=O)c1ccc(CS(=O)(=O)c2ccc(OC)cc2)o1

>  <Observed Result>
-0.122

$$$$
>  <Compound>
COc1ccccc1-c1cc(C(=O)NCc2ccc(Cl)cc2)no1

>  <Observed Result>
3.64

$$$$
>  <Compound>
COc1ccc(C)cc1Nc1n[n+](-c2ccccc2)c(-c2cc(OC)c(OC)cc2Br)s1.[Cl-]

>  <Observed Result>
-48.9

$$$$
>  <Compound>
COc1ccc(C(=O)OCn2nnc3ccccc3c2=O)cc1OC

>  <Observed Result>
8.71

$$$$
>  <Compound>
COc1cc(O)c(C(CCN2CCCC(C)C2)c2ccc(N(C)C)cc2)c(OC)c1 (stereo not drawn)

>  <Observed Result>
-29.5

$$$$
>  <Compound>
COc1cc(O)c(C(CCN2CCOCC2)c2ccc3c(c2)OCO3)c(OC)c1 (stereo not drawn)

>  <Observed Result>
-59.5

$$$$
>  <Compound>
CC1CCCC(NC(=O)COC(=O)Cc2c[nH]c3ccccc23)C1C (stereo not drawn)

>  <Observed Result>
-14

$$$$
>  <Compound>
COc1ccc(CNCc2cc(C)c(OC)cc2C)c(OC)c1.O=C(O)C(=O)O

>  <Observed Result>
-54.9

$$$$
>  <Compound>
Cc1ccc(-n2c(SCC(=O)OC(C)C)nnc2-c2ccco2)cc1

>  <Observed Result>
-37.7

$$$$
>  <Compound>
CCc1nc(SCC(=O)O)c2c3c(sc2n1)COC(C)(C)C3

>  <Observed Result>
23.2

$$$$
>  <Compound>
COc1ccc(S(=O)(=O)Nc2nc3c(s2)C(=O)CC(C)(C)C3)cc1

>  <Observed Result>
-10.3

$$$$
>  <Compound>
COc1ccc(C)cc1Nc1n[n+](-c2ccccc2)c(-c2ccc(NC(C)=O)cc2)s1.[Cl-]

>  <Observed Result>
12.8

$$$$
>  <Compound>
COc1cc(O)c(C(CC(=O)N2CCCC2)c2ccc3c(c2)OCO3)c(OC)c1 (stereo not drawn)

>  <Observed Result>
6.4

$$$$
>  <Compound>
COc1cc(O)c(C(CCN2CCCC2)c2ccc3c(c2)OCO3)c(OC)c1 (stereo not drawn)

>  <Observed Result>
-72.5

$$$$
>  <Compound>
COc1ccc(C)cc1Nc1n[n+](-c2ccccc2)c(-c2c(Cl)cccc2Cl)s1.[Cl-]

>  <Observed Result>
-55.9

$$$$
>  <Compound>
COc1cc(O)c(C(CC(=O)N2CCOCC2)c2ccc3c(c2)OCO3)c(OC)c1 (stereo not drawn)

>  <Observed Result>
7.98

$$$$
>  <Compound>
CC(C)CC(=O)C(=O)[O-].[Na+]

>  <Observed Result>
-0.864

$$$$
>  <Compound>
CCCCn1nc(NC(=O)CC)c2cc3cc(OC)ccc3nc21

>  <Observed Result>
-11.2

$$$$
>  <Compound>
COc1ccc(C)cc1Nc1n[n+](-c2ccccc2)c(-c2cccc(Cl)c2Cl)s1.[Cl-]

>  <Observed Result>
10

$$$$
>  <Compound>
O=C(Nc1ccc(Br)cc1)c1cccc(OC(=S)N2CCOCC2)c1

>  <Observed Result>
17

$$$$
>  <Compound>
Cc1cc(C)n(-c2ccc(C(F)(F)F)cc2[N+](=O)[O-])n1

>  <Observed Result>
1.78

$$$$
>  <Compound>
CC1=NN(C(=O)c2nn(C)cc2Br)C(O)(C(F)(F)F)C1 (stereo not drawn)

>  <Observed Result>
10.3

$$$$
>  <Compound>
COc1ccccc1CNC(=O)c1ccc(OC(F)F)c(OC)c1

>  <Observed Result>
-32.1

$$$$
>  <Compound>
COc1cc(O)c(C(CC(=O)N2CCCCC2)c2ccc3c(c2)OCO3)c(OC)c1 (stereo not drawn)

>  <Observed Result>
5.41

$$$$
>  <Compound>
Br.COc1ccc(CNCc2ccc(F)cc2)c(OC)c1

>  <Observed Result>
-79

$$$$
>  <Compound>
COc1cc(O)c(C(CCN2CCN(c3ccccc3)CC2)c2ccc3c(c2)OCO3)c(OC)c1 (stereo not drawn)

>  <Observed Result>
-16.6

$$$$
>  <Compound>
COc1ccc(S(=O)(=O)N(CC(N)=O)C2CCCCC2)cc1Cl

>  <Observed Result>
4.39

$$$$
